system: Human ovarian cancer cell line SKOV3; details: 24 h
measurementType: Dark toxicity μM (IC10) (µM)
Reply with just the number (in µM).

Known results for compounds:
- compound: "CCC1=C(C)c2cc3[nH]c(cc4nc(c(C)c5cc(C)c(cc1n2)[nH]5)[C@@H](CCC(=O)N(C)CCCOCCC[P+](c1ccccc1)(c1ccccc1)c1ccccc1)[C@@H]4C)c(C)c3CO [Compound 18]"
  numericReadout: 4.393
- compound: "CCC1=C(C)c2cc3[nH]c(cc4nc(c(C)c5cc(C)c(cc1n2)[nH]5)[C@@H](CCC(=O)OC)[C@@H]4C)c(C)c3CO [Compound 3]"
  numericReadout: 45.720

Case CCC1=C(C)c2cc3[nH]c(cc4nc(c(C)c5cc(C)c(cc1n2)[nH]5)[C@@H](CCCO)[C@@H]4C)c(C)c3CO [Compound 32] , Human ovarian cancer cell line SKOV3, Dark toxicity μM (IC10) recorded as 30.850
